B1: Ankyrin-2, residues 3571 to 3650; numbered along this chain, Q01484 (parent)
chain: ERLAYIADHLGFSWTELARELDFTEEQIHQIRIENPNSLQDQSHALLKYWLERDGKHATDTNLVECLTKINRMDIVHLME

Variants of: B1
Assay: abundance fitness (aPCA) (normalised: wild type 0, dead -1); higher = more abundant; growth selection in yeast, the domain comes from the species named
Details: Homo sapiens
Short version: abundance fitness at least -0.04 is y, less is n.

A selection of reference data follows.
I6V ... n
E16A ... y
F23T ... n

Here's the next entry for you.
Hello, I need to know if "Y5N" has measured abundance fitness not below -0.04. Thanks! y
